Origin of values: ChEMBL document CHEMBL3988442

- Tested on: Wolbachia pipientis
- ASSAY: Anti-Wolbachia Cell-Based Screen
- Assay type: functional
- Set-up: scale not given: in the data most compounds retested in dose-response had high values
- RUN_PARAMETERS: 5 µM
Among all 48,000 compounds or so, about 13,000 (27%) showed an effect of 50% or more. The list shows a part of the results.
# 1 = Percent Effect below 10% (exclusive); 0 = Percent Effect at/above 10%

Lab note: Percent Effect threshold 10%. Does this molecule come in strictly under it? "Cc1ccc(N2CCN(Cc3ccccc3)C3(CCNCC3)C2=O)cn1.O=C(O)C(F)(F)F"
1

Next: "Cc1nc(-c2ccccc2C)n(CC(=O)NC(C)C)n1"
1

What about this molecule? "Cc1cccc(-c2nc(C)nn2CC(=O)NC2CCCC2)c1"
1

// next record CN(C)CC(=O)N1CCC2(CC1)COC(COc1ccccn1)C2.O=C(O)C(F)(F)F.O=C(O)C(F)(F)F (stereo not drawn)
0

Entry to check: "CCc1noc(C)c1C(=O)N1C[C@H](NS(C)(=O)=O)[C@@H](C2CC2)C1"
1

// query: O=C(COC1CCCC1)NC(C(=O)Nc1cc[nH]n1)c1ccccc1 (stereo not drawn)
1

Try the molecule "CCCNC(=O)[C@@H]1CCCN1[C@@H](C(=O)NC)C1CC1.Cl"
1

For "Cc1nc(-c2ccccc2)n(CC(=O)NC(C2CC2)C2CC2)n1" then?
1

Likewise for "Cc1occc(=O)c1OCc1noc(C(=O)NC(C)C)n1" ?
0

Now consider O=C(c1csc(C2CC2)n1)N1CCCCC1Cn1cccn1 (stereo not drawn) .
0

Also CCc1cc(C(=O)N2CCCC(c3[nH]ncc3S(C)(=O)=O)C2)no1 (stereo not drawn) ?
0

Item: NCC1CCC2(CCN(C(=O)c3ccccn3)CC2)CO1.O=C(O)C(F)(F)F.O=C(O)C(F)(F)F (stereo not drawn)
0

And CCn1cc(C(=O)N2CCCC(c3[nH]ncc3S(C)(=O)=O)C2)cn1 (stereo not drawn) ?
1

"CN1[C@@H](c2ccccc2)[C@@H](C(=O)NCc2ccncc2)C[C@@]1(C)C(=O)O" , same question.
1

// repeat for CCc1cn[nH]c1C1CCCN(C(=O)c2ncoc2C(C)C)C1 (stereo not drawn) and report
1

Item: CCc1cn[nH]c1C1CCCN(C(=O)c2noc(C)c2COC)C1 (stereo not drawn)
1

Now this one: O=C(O)C(F)(F)F.O=C(c1cocn1)N1CCC2(CC1)COC(COCc1ccccn1)C2 (stereo not drawn)
1

Next: "COc1cc(C(=O)N2CC3(CCNCC3)c3cc(Cl)ccc32)ccn1.O=C(O)C(F)(F)F.O=C(O)C(F)(F)F"
0

Param item: "Cc1nc(-c2ccccc2C)n(CC(=O)NC2CCCC2)n1"
0

Follow-up entry: CCOCC1CC2(CCN(C(=O)c3ccccn3)CC2)CO1.O=C(O)C(F)(F)F (stereo not drawn)
1

Follow-up item: "O=C(O)C(F)(F)F.O=C(c1cocn1)N1CC[C@H]2OCC[C@@]2(COc2ncccc2F)C1"
1

Then this molecule: CNC(=O)NCC1CCC2(CCN(C(=O)c3ccccn3)CC2)CO1.O=C(O)C(F)(F)F (stereo not drawn)
0

Next: O=C(O)C(F)(F)F.O=C(c1cccc(Cl)c1)N1CCCC2(CCCNC2)C1 (stereo not drawn)
1

Next record, please: "CN(C(=O)Cc1coc(-c2cccs2)n1)C1(C#N)CCC1"
1

Next record, please: CCc1noc(C)c1C(=O)N1CCC(c2[nH]ncc2S(C)(=O)=O)C1 (stereo not drawn)
0

Now the same for Cc1nc(-c2ccccc2C)n(CC(=O)NC(C)C2CC2)n1 (stereo not drawn)
1

# iterate: O=C(Nc1nncs1)NC1CCOc2ccccc21 (stereo not drawn)
0

Follow-up item: "CCOC(=O)c1nc(COc2c(C)occc2=O)no1"
0

Subsequent entry: "O=C(NCCc1ccncc1)c1ccc(N2CCOCC2)cc1"
1

And the next one, O=C(c1csc(C2CC2)n1)N1CCCC1Cn1cccn1 (stereo not drawn) ?
0

Entry "O=C(O)C(F)(F)F.O=C(O)C(F)(F)F.O=C(c1ccncc1)N1CC2(CCNCC2)c2cc(Cl)ccc21" please
0

Also "CCc1nc(COc2ccc(N(C)C(C)=O)cc2)no1" ?
1

Try this molecule too: "CCCN1CCCN(CCCOc2cccc(C#N)c2)CC1"
1

Another molecule to check: "O=C(C1CC1)N1CC2(CCNCC2)c2cc(F)ccc21.O=C(O)C(F)(F)F"
1

Field entry: "Cc1cc(C(=O)O)ccc1NS(=O)(=O)c1c(C)nn(C(C)C)c1C"
1

Query CCOc1ccc(CC(CNC(=O)c2ccoc2C)C(N)=O)cc1 (stereo not drawn) next
1

Here is the next molecule: "CCC(CC)NC(=O)Cn1nc(C)nc1-c1ccccc1"
1

What do you have for "Cc1nc(-c2ccccc2)n(CC(=O)NC2CCCCC2)n1" ?
0

Try the molecule Cc1occc1C(=O)NCC(O)c1ccc(Cl)s1 (stereo not drawn)
1

Next: "O=C(O)C(F)(F)F.O=C(c1ccco1)N1CC2(CCNCC2)c2cc(Cl)ccc21"
0

Try this molecule too: Cc1cccc(C(=O)NC2CCN(c3cnn(C)c3)C2=O)c1C (stereo not drawn)
1

Now consider O=C(O)C(F)(F)F.O=C(c1ccco1)N1CCCC2(CN(Cc3ccc(F)cc3)CCO2)C1 (stereo not drawn) .
1

// repeat for "CNC(=O)c1ccc(OC)c(NCc2noc(-c3ccsc3)n2)c1" and report
1
